In this section we review reported inhibition at 1 µM values for a set of molecules.
Target: pyrene-conjugated actin (Oryctolagus cuniculus, UniProt P68135)
Construct: purchased Cytoskeleton, Denver, Colo
Experiment: Pyrene actin polymerization assay
Type: biochemical
Details: 1 μM; compared to vehicle control (DMSO); read-out: Actin polymerization inhibition (%) 1 μM
Give a bare numeral; the unit % is implied.

Examples from the recorded data:
{"molecule": "C/C1=C/C(=O)O[C@@H]2C[C@@H](CC[C@H](C)/C=C\\C=C\\CC1)O[C@@](O)([C@@H]1CSC(=O)N1CO)C2 [Compound 14, N-Hydroxymethyllatrunculin A]", "inhibition at 1 µM (%)": 90}
{"molecule": "COc1ccc(CC(=O)N2C(=O)SC[C@H]2[C@@]2(OC)C[C@H]3C[C@@H](CC[C@H](C)/C=C\\C=C\\CC/C(C)=C\\C(=O)O3)O2)cc1 [Compound 11]", "inhibition at 1 µM (%)": 13}

Moving on to another molecule below.
Problem: Dear colleague, I am looking for the recorded inhibition at 1 µM of the following molecule: C/C1=C/C(=O)O[C@@H]2C[C@@H](CC[C@H](C)/C=C\C=C\CC1)O[C@@](O)([C@@H]1CSC(=O)N1Cc1ccccc1)C2 [Compound 13, N-Benzyllatrunculin A]
Result: 64

* * *

Test system: alkaline phosphatase in C2C12 cells
Experiment: Alkaline phosphatase in C2C12 cells (Wnt pathway)
Type: cell-based
observed property: pEC50
Scale: pEC50 equals -log10([C]), with [C] in mol/L.

Problem: Dear colleague, I am looking for the recorded pEC50 of the following molecule: C/C1=C/C(=O)O[C@@H]2C[C@@H](CC[C@H](C)/C=C\CC1)O[C@@](O)([C@@H]1CSC(=O)N1)C2 [Compound 20, latrunculin B]
Result: 7.04

* * *

Biological target: pyrene-conjugated actin (Oryctolagus cuniculus, UniProt P68135)
Construct: purchased Cytoskeleton, Denver, Colo
Experiment: Pyrene actin polymerization assay
Type: biochemical
Conditions: 1 μM; compared to vehicle control (DMSO); read-out: Actin polymerization inhibition (%) 1 μM
Method: An actin polymerization kit was used to assess the direct actin-binding activity of each analogue at two concentrations: 100 nM and 1 μM. This kit is based on the enhanced fluorescence of pyrene-conjugated actin that occurs during polymerization. When pyrene-G-actin (monomer) forms pyrene-F-actin, fluorescence is enhanced. The enhanced fluorescence is used to follow polymerization over time. […] Pyrene-Actin Polymerization Assays. […] The IC50 for each compound was calculated using GraphPad Prism 5.0. […]
In this section we review reported inhibition at 1 µM values for a set of compounds.
Give a bare numeral; the unit % is implied.

{"compound": "CO[C@]1([C@@H]2CSC(=O)N2C)C[C@H]2C[C@@H](CC[C@H](C)/C=C\\C=C\\CC/C(C)=C\\C(=O)O2)O1 [Compound 5, 17-O-Methyl-N-methyllatrunculin A]", "inhibition at 1 µM [%]": 19}

Problem: Identify the measured inhibition at 1 µM of CCN1C(=O)SC[C@H]1[C@@]1(O)C[C@H]2C[C@@H](CC[C@H](C)/C=C\C=C\CC/C(C)=C\C(=O)O2)O1 [Compound 12, N-Ethyllatrunculin A] for pyrene-conjugated actin (Oryctolagus cuniculus, UniProt P68135).
Result: 70

Problem: Now give it for C/C1=C/C(=O)O[C@@H]2C[C@@H](CC[C@H](C)/C=C\C=C\CC1)O[C@@](OCCc1ccccc1)([C@@H]1CSC(=O)N1)C2 [Compound 3, 17-O-Phenylethyllatrunculin A] too.
Result: 94

Problem: Now give it for CO[C@]1([C@@H]2CSC(=O)N2Cc2ccccc2)C[C@H]2C[C@@H](CC[C@H](C)/C=C\C=C\CC/C(C)=C\C(=O)O2)O1 [Compound 9, 17-O-Methyl-N-benzyllatrunculin A] too.
Result: 67

Problem: Now give it for CCN1C(=O)SC[C@H]1[C@@]1(OC)C[C@H]2C[C@@H](CC[C@H](C)/C=C\C=C\CC/C(C)=C\C(=O)O2)O1 [Compound 6, 17-O-Methyl-N-ethyllatrunculin A] too.
Result: 18
